Origin of measurements: PubChem BioAssay AID1259421

experiment: Toxoplasma gondii ME49Luc growth in HeLa cells, luciferase, no IFN-y, primary screen (AID 1259421); conditions: T. gondii ME49Luc in HeLa, 72 h, concentration not given here
Among all 6,400 compounds or so, about 610 (9.5%) were called active. Cut-off read from the data, not from the text of the source: active = activity change below about -70%; inconclusive = no clear call, values can overlap the other calls; inactive = above that. The sample holds actives, similar compounds and a random draw of the others, so the mix is not that of the screen.
Outcome codes: active, inactive

c1cncc(C2CCCN2)c1 (stereo unspecified)
inactive
Oc1ccc2c3c1OC1c4[nH]c5ccccc5c4CC4(O)C(C2)N(CC2CC2)CCC314 (stereo unspecified)
inactive
C=C[C@H]1CN2CC[C@H]1C[C@@H]2[C@H](O)c1ccnc2ccccc12
inactive
C[C@]12CCC3[C@@H](CC[C@@]45O[C@@H]4C(=O)C(C#N)C[C@]35C)C1CC[C@@H]2O (stereo partly specified)
active
Cc1o[nH]c(=O)c1CC(N)C(=O)O (stereo unspecified)
inactive
CCC(CO)NC(=O)C1C=C2c3cccc4c3c(cn4C)CC2N(C)C1 (stereo unspecified)
inactive
C[C@]12CC[C@H]3[C@@H](CC[C@@]45O[C@@H]4C(=O)C(C#N)C[C@]35C)[C@@H]1CC[C@@H]2O (stereo partly specified)
inactive
CN1C[C@@H](NS(=O)(=O)N(C)C)C[C@@H]2c3cccc4c3c(cn4C)C[C@H]21
inactive
N[C@H](CO)Cc1ccccc1
inactive
CC1(C)C2C[C@@H](O)[C@]3(C)C(CC[C@@]4(C)[C@H](c5ccoc5)OC(=O)[C@H]5O[C@]543)[C@@]2(C)[C@@H](O)C[C@H]1O (stereo partly specified)
inactive
N#CC(C#N)=NNc1ccc(OC(F)(F)F)cc1
inactive
CCNC(=O)[C@H]1O[C@@H](n2cnc3c(N)ncnc32)[C@H](O)[C@@H]1O
inactive
N[C@]1(C(=O)O)CC[C@@H](C(=O)O)C1 (racemic)
inactive
CC(=O)Oc1ccc(/C=C/c2cc(OC(C)=O)cc(OC(C)=O)c2)cc1
inactive
C[C@H](N)Cc1cnc[nH]1
inactive
CC(N)Cn1ccc2cc(F)c(Cl)cc21 (stereo unspecified)
inactive
C[C@@H]1CN(C2CCC(C#N)(c3ccc(F)cc3)CC2)CC[C@]1(C(=O)O)c1ccccc1 (stereo partly specified)
inactive
COC(=O)CN1CN(c2ccccc2)C2(CCN(Cc3cccc4ccccc34)CC2)C1=O
inactive
O=C1NC(=O)c2c1c1c3ccccc3n3c1c1c2c2ccccc2n1C1CCC3O1
active
CC1(C)C(=O)C=C[C@@]2(C)C1C[C@@H](O)[C@]1(C)C2CC[C@@]2(C)[C@H](c3ccoc3)OC(=O)[C@H]3O[C@]321 (stereo partly specified)
inactive
O=C1CN=C(c2cccc(Br)c2)c2oc3ccccc3c2N1
inactive
C=C(C)C1Cc2c(ccc3c(=O)c4c(oc23)COc2cc(OC)c(OC)cc2-4)O1 (stereo unspecified)
inactive
COC(=O)/C=C/C(=O)N[C@@H]1CC[C@@]2(O)[C@H]3Cc4ccc(O)c5c4[C@@]2(CCN3CC2CC2)[C@H]1O5
inactive
CN1C2C[C@H](OC(=O)[C@H](CO)c3ccccc3)C[C@H]1[C@@H](O)C2
inactive
C[C@@H]1O[C@@H](O[C@H]2CC[C@]3(C=O)C4CC[C@]5(C)[C@@H](C6=CC(=O)OC6)CC[C@]5(O)C4CC[C@]3(O)C2)[C@H](O)[C@H](O)[C@H]1O (stereo partly specified)
active
O=C(N[C@H]1CN2CCC1CC2)c1cc2cccc(Cl)c2s1
inactive
Oc1ccc2c3c1OC1c4oc5ccccc5c4CC4(O)C(C2)N(CC2CC2)CCC314 (stereo unspecified)
inactive
COC(=O)CN1CN(c2ccccc2)C2(CCN(Cc3ccc4ccccc4c3)CC2)C1=O
inactive
NC(=O)c1cn(C2OC(CO)[C@H](O)[C@@H]2O)c2ncnc(N)c12 (stereo partly specified)
active
Clc1ccc(C23CNCC2C3)cc1Cl (stereo unspecified)
inactive
CCNC(=O)C1OC(n2cnc3c(N)ncnc32)C(O)C1O (stereo unspecified)
inactive
Clc1cccc(SC2CCNCC2)n1
inactive
CC1(C)C2CC(=O)[C@]3(C)C(CC[C@@]4(C)[C@H](c5ccoc5)OC(=O)C5OC543)[C@@]2(C)[C@@H](O)C[C@H]1O (stereo partly specified)
inactive
O=C1c2ccccc2C(=O)c2ccccc21
inactive
NC(=O)CS(=O)C(c1ccccc1)c1ccccc1 (stereo unspecified)
inactive
CN1CCC2(c3cccc(O)c3)Cc3nc4ccccc4cc3CC2C1 (stereo unspecified)
inactive
Fc1cc(F)c2c(c1)[C@H]1C=CC[C@H]1C(c1cccnc1)N2 (stereo partly specified)
active
CN1CCC2=C(C1)c1ccccc1Cc1ccccc12
inactive
NC1CCN(c2cccnc2)C1 (stereo unspecified)
inactive
CC(=O)O[C@H]1C[C@@H](OC(C)=O)C(C)(C)C2C[C@@H](OC(C)=O)[C@]3(C)C(CC[C@@]4(C)[C@H](c5ccoc5)C(=O)[C@H]5O[C@]543)[C@]21C (stereo partly specified)
inactive
Cc1cc(OC(=O)N2CCCCC2)c(C(C)C)cc1[N+](C)(C)C
inactive
